Where do the numbers come from? From paper PMC8571082.

B1: Mint3NT, N-terminal fragment (1–214) of Mint3 [human] / factor inhibiting HIF-1 (FIH-1), full-length [human] (parent complex)
chain 1: MDFPTISRSPSGPPAMDLEGPRDILVPSEDLTPDSQWDPMPGGPGSLSRMELDESSLQELVQQFEALPGDLVGPSPGGAPCPLHIATGHGLASQEIADAHGLLSAEAGRDDLLGLLHCEECPPSQTGPEEPLEPAPRLLQPPEDPDEDSDSPEWVEGASAEQEGSRSSSSSPEPWLETVPLVTPEEPPAGAQSPETLASYPAPQEVPGPCDHED
chain 2: MAATAAEAVASGSGEPREEAGALGPAWDESQLRSYSFPTRPIPRLSQSDPRAEELIENEEPVVLTDTNLVYPALKWDLEYLQENIGNGDFSVYSASTHKFLYYDEKKMANFQNFKPRSNREEMKFHEFVEKLQDIQQRGGEERLYLQQTLNDTVGRKIVMDFLGFNWNWINKQQGKRGWGQLTSNLLLIGMEGNVTPAHYDEQQNFFAQIKGYKRCILFPPDQFECLYPYPVHHPCDRQSQVDFDNPDYERFPNFQNVVGYETVVGPGDVLYIPMYWWHHIESLLNGGITITVNFWYKGAPTPKRIEYPLKAHQKVAIMRNIEKMLGEALGNPQEVGPLLNTMIKGRYN

- Variants of: B1
- assay method text: ITC; measured three times for each FIH-1 mutant
For each entry below, report its dG value.
// unit must come after the numeric part

chain 2 E29A | -9.1 kcal/mol

Each of the following entries comes with a recorded value; kindly state dG for each.
1. chain 2 K75A
2. chain 2 E250A

Result:
1. -8.8 kcal/mol
2. -9 kcal/mol
